Where these numbers come from: patent US20240067748A1

Target: T1, monkey Trop2 on CHO-K1 cells (monkey, UniProt A0A2K5UE71 27-323)
T1 construct: also called CHO-K1/monkey Trop2
T1 sequence: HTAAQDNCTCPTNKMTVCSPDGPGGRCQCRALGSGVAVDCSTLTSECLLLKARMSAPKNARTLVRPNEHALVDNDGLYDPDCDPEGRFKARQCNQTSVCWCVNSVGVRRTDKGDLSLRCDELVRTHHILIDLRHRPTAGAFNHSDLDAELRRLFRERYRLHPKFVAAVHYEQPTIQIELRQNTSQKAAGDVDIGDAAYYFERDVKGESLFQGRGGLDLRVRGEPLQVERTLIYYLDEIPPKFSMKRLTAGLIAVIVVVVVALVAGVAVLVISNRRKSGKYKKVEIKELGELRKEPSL
Assay: flow cytometry on CHO-K1/monkey Trop2 cells
Measured Attribute: Maximum MFI value (MFI)
# value in MFI; strip the unit string

# Binder, Maximum MFI value, MFI
data = [
    ("PR001162 (antibody, human IgG1, kappa, V domains shown, fully human IgG1/kappa; also called antibody No. (23)) VH: QVQLVESGGGVVQPGTSLRLSCVASGFTFSNDGMHWVRQAPGMGLEWVAIMWFDGGSKYYADSVKGRFTISRDNSKNTLYLQMNNLRAEDTAVYYCARDHPHYLGSGSFDYWGQGTLVTVSS VL: EIVLTQSPATLSLSPGERATLSCRASQSVSSYLAWYQQKPGQAPRLLIYDASNRATGIPARFSGSGSGTDFTLTISSLQAEDVAVYYCQQYYSTPYTFGQGTKLEIKR", 45500),
]

Provide only the value of recorded Maximum MFI value for PR001133 (antibody, human IgG1, kappa, V domains shown, fully human IgG1/kappa; also called antibody No. (5)) VH: QVNLVESGGGVVQPGRSLKLSCAASGFTFSSYGMHWVRQAPGKGLEWVALIWSDGTNRYYTESVKGRFTISRDNSKNTLSLQMKSLRAEDTAVYYCAKDGWGTYGEYFQHWGQGTLVTVSS VL: DIQMTQSPSSLSASVGDRVTITCRASQNINSYLHWYQQKPGKAPKLLIYAASSLQSGVPSRFSGSGSGTDFTLTISSLQPEDFAIYYCQQSYSIPPITFGQGTRLEIKR
55300

Provide only the value of recorded Maximum MFI value for PR001142 (antibody, human IgG1, kappa, V domains shown, fully human IgG1/kappa; also called antibody No. (9)) VH: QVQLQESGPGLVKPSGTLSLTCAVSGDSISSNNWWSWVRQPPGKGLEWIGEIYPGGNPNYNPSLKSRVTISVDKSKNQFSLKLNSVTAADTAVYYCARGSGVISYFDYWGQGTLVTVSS VL: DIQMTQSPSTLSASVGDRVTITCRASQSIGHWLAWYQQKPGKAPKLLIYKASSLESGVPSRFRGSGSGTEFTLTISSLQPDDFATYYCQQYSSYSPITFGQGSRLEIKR
51200
